Corn plant response rating: recorded values
System: corn
protocol_details: Test B pre/postemergence corn
Format: in vivo, Zea mays
protocol_conditions: Preemergence, Rate 62 g/ha; scale of 0 to 10 where 0 is no effect and 10 is complete control
# print the numeric value only

Check out these entries, answers already filled in.
INSERT INTO assay_data (compound, tgt, value_measured) VALUES
  ('C=CCn1c(=O)on(C(=O)N(c2ccc(Cl)cc2)C(C)C2CC2)c1=O (centres unmarked)', 'corn', 0),
  ('CC(C)N(C(=O)n1oc(=O)n(C(C)C)c1=O)c1cnccn1', 'corn', 0),
  ('CC(C)N(C(=O)n1oc(=O)n(C(C)C=O)c1=O)c1ccccc1 (centres unmarked)', 'corn', 0),
  ('CC(C)N(C(=O)n1oc(=O)n(CC2CCCCO2)c1=O)c1ccc(F)cc1F (centres unmarked)', 'corn', 0);

**Q:** For `Cc1nc(C)c(Cn2c(=O)on(C(=O)N(c3ccc(F)cc3)C(C)C)c2=O)s1` , what is its reported Corn plant response rating?
**A:** 0
